Biological target: HLA-B*27:03
Test: IEDB peptide-MHC binding, purified MHC/competitive/fluorescence; filed as Kd, often an IC50 or EC50 that approximates it; bounds were set here for any values at or beyond the usual limits of such assays
Details: source organism: Sudan ebolavirus
MEASURED QUANTITY: Kd

> print(dat)
   sequence.chain  value.reported
1       YTENTSSYY         ≥ 20 µM

---

Target: HLA-B*57:01
Test: IEDB peptide-MHC binding, purified MHC/direct/fluorescence; filed as Kd, often an IC50 or EC50 that approximates it; bounds were set here for any values at or beyond the usual limits of such assays
Details: source organism: Marburg virus - Musoke, Kenya, 1980
MEASURED QUANTITY: Kd

> print(dat)
   sequence.chain  measured.quantity  value.reported
1       KLDFIRNTK                 Kd         ≥ 20 µM
